B1: LINE1-full (parent)
chain: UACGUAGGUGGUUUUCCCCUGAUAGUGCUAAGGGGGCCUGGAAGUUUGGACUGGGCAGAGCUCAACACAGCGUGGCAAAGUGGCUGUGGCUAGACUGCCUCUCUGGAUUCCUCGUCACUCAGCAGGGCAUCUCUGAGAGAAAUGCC

# Variants of: B1
# assayMethodText: self-cleavage, relative activity (ratio to wild type); higher = more cleavage; in vitro, sequencing; the parent is a self-cleaving ribozyme
A collection of variants and their measured self-cleavage

{"orderedResidues": "UACGUAGGUGGUUUUCCCCUGAUAGUGCUAAGGGGGCCUGGAAGUUUGGACGGGGCAGAGCUCAACACAGCGUGGCAAAGUGGCUGUGGCUAGACUGCCUCUCUGGAUUGCUCGUCACUCAGCAGGGCAUCUCUGAGAGAAAUGCC [U52G C110G]", "self-cleavage": 1.31}
{"orderedResidues": "UACGUAGGUGGUUUUCCCCUGAUAGUGCUAAGGGGGCCUGGAUGUUUGGACUGGGCAGAGCUCAACACAGCGUGGCAAAGUGGCUGUGGCUAGACUGCCCCUCUGGAUUCCUCGUCACUCAGCAGGGCAUCUCUGAGAGAAAUGCC [A43U U100C]", "self-cleavage": 1.75}
{"orderedResidues": "UACGUAGGUGGUUUUCCCCUGAUAGUGCUAAGGGGGCCUGGAAGUUCGGACUGGGCAGAGCUCAACACAGCGUGGCAAAGUGGCCGUGGCUAGACUGCCUCUCUGGAUUCCUCGUCACUCAGCAGGGCAUCUCUGAGAGAAAUGCC [U47C U85C]", "self-cleavage": 0.24}
{"orderedResidues": "UACGUAGGUGGUUUUCCCCUGAUAGUGCCAAGGGGGCCUGGAAGUUUGGACUGGGCGGAGCUCAACACAGCGUGGCAAAGUGGCUGUGGCUAGACUGCCUCUCUGGAUUCCUCGUCACUCAGCAGGGCAUCUCUGAGAGAAAUGCC [U29C A57G]", "self-cleavage": 0.98}
{"orderedResidues": "UACGUAGGUGGCUUUCCCCUGAUAGUGCUAAGGGGGCCUGGAAGUUUGGACUGGGCAGAGCUCAUCACAGCGUGGCAAAGUGGCUGUGGCUAGACUGCCUCUCUGGAUUCCUCGUCACUCAGCAGGGCAUCUCUGAGAGAAAUGCC [U12C A65U]", "self-cleavage": 0.21}
{"orderedResidues": "UACGUAGGUGGUUUUCCCCUGAUAGUGCUAAGGGGGCCUGGAAGUUUGGACCGGGCAGAGCUCAACACAGCGUGGCAAAGUGGCUGUGGCUAGACUGCCUCUCUGGAUUCCUCGUCACUCAGCAGGGAAUCUCUGAGAGAAAUGCC [U52C C128A]", "self-cleavage": 0.71}
{"orderedResidues": "UACGUAGGUGGUUUUCCCCUGAUAGUGCUAAGGGGGCCUGGAAGUUUGGACUGGGCAGAGCUCAACACAGCGUGGCAAAGUGGCUGUGGCUUGACUGCCUCUCUGGAUUCCUCGUCACUCAGCAGAGCAUCUCUGAGAGAAAUGCC [A92U G126A]", "self-cleavage": 0.41}
{"orderedResidues": "UACGUAGGUGGUUUUCCCCUGAUAGUGCUAAGGGGGCCUGGAAGUUUGGACUGGGCAGAGCUCUACACAGCGUGGCAAAGUGGCUGCGGCUAGACUGCCUCUCUGGAUUCCUCGUCACUCAGCAGGGCAUCUCUGAGAGAAAUGCC [A64U U87C]", "self-cleavage": 0.12}
{"orderedResidues": "UACGUAGGUGGUUUUCCCCUGAUAGUGCUAAGGGGGCCUGGAAGUUUGGACUGGGCAGAGCUCAACACAGCGUGGCAAAGUGGCUGUGGCUAGACUGCCUCUCUGGAUUCUUCGUCACUCAGCAGGGCAUCUCUGAGGGAAAUGCC [C111U A138G]", "self-cleavage": 2.01}
{"orderedResidues": "UACGUAGGUGGUUUUCCCCAGAUAGUGCUAAGGGGGCCUGGAAUUUUGGACUGGGCAGAGCUCAACACAGCGUGGCAAAGUGGCUGUGGCUAGACUGCCUCUCUGGAUUCCUCGUCACUCAGCAGGGCAUCUCUGAGAGAAAUGCC [U20A G44U]", "self-cleavage": 1.2}
{"orderedResidues": "UACGUAGGUGGUUUUCCCCUGAUAGUGCUAAGGGGGCCUGGAAGUUAGGACUGGGCAGAGCUCAACACAGCGUGGCAAAGUGGCUGUGGCUAGACUGCCUCUCUGGAUUCCUCGUCACUCAGUAGGGCAUCUCUGAGAGAAAUGCC [U47A C123U]", "self-cleavage": 0.7}
{"orderedResidues": "UACGUAGGUGGUUUUCCCCUGAUAGCGCUAAGGGGGCCUGGAAGUUUGGACUGGGCAGAGCUCAACACAGCGUGGCAAAGUGGCUGUGGCUAGACUGCCUCUCUGGAUUCCUCGUCACUCAGCAGGGCAUCUCUGGGAGAAAUGCC [U26C A136G]", "self-cleavage": 1.42}
{"orderedResidues": "UACGUAGGUGGUUUUCCCCUGAUAGUGCUAAGGGGGCCUGGAAGUUUGGACCGGGCAGAGCUCAACACAGCGUGACAAAGUGGCUGUGGCUAGACUGCCUCUCUGGAUUCCUCGUCACUCAGCAGGGCAUCUCUGAGAGAAAUGCC [U52C G75A]", "self-cleavage": 0.9}
{"orderedResidues": "UACGUAGGUGGUUUUCCCCUGAUAGUGCUAAGGGGGCCUGGAAGUUUGGACUGGGCAGAGCUCGACACAGCGUGGCAAAGUGGCUGUGGCUAGACUGCCUCUCUGGAUUCCUCGUCACUCAGCAGGGCAUCUCUGAGAGAUAUGCC [A64G A141U]", "self-cleavage": 0.17}
{"orderedResidues": "UACGUAGGUGGUUUUCCCCUGAUAGUGCAGAGGGGGCCUGGAAGUUUGGACUGGGCAGAGCUCAACACAGCGUGGCAAAGUGGCUGUGGCUAGACUGCCUCUCUGGAUUCCUCGUCACUCAGCAGGGCAUCUCUGAGAGAAAUGCC [U29A A30G]", "self-cleavage": 0.86}
{"orderedResidues": "UUCGUAGGUGGUUUUUCCCUGAUAGUGCUAAGGGGGCCUGGAAGUUUGGACUGGGCAGAGCUCAACACAGCGUGGCAAAGUGGCUGUGGCUAGACUGCCUCUCUGGAUUCCUCGUCACUCAGCAGGGCAUCUCUGAGAGAAAUGCC [A2U C16U]", "self-cleavage": 0.32}
{"orderedResidues": "UACGUAGGUGGUUUUCCCCUGAUAGUGCUAAGGGGGCCUGGAAGAUUGGACUGGGCAGAGCUCAACACAGCGUGGCAAAGUGGCUGUGGCUAGACUGCCUCUCUGGAUUCCUCGUCACUCAGCAGGGCAUCUCAGAGAGAAAUGCC [U45A U134A]", "self-cleavage": 1.11}
{"orderedResidues": "UACGUAGGUGGUUUUCCCCUGAUAGCGCUAAGGGGGCCUGGAAGUUUGGACUGGGCAGAGCUCAACACAGCGUGGCAAAGUGGCUGUGGCUGGACUGCCUCUCUGGAUUCCUCGUCACUCAGCAGGGCAUCUCUGAGAGAAAUGCC [U26C A92G]", "self-cleavage": 0.04}
{"orderedResidues": "UACGUAGGUGGUUUUCCCCUGAUAGAGCUAAGGGGGCCUGGAAGUUUGGACUGGGCAGAGCUCAACACAGCGUGGCAAAGUGGCUGUGGCUAGACUGCCUCUCUGGAUUCCUCGUCACUCAGCAGGGCAUCCCUGAGAGAAAUGCC [U26A U132C]", "self-cleavage": 1.15}
{"orderedResidues": "UACGUAGGUGGUUUUCCCCUGAUAGUGAUAAGGGGGCCUGGAAGUUUGGACUGGGCAGAGCUCAACGCAGCGUGGCAAAGUGGCUGUGGCUAGACUGCCUCUCUGGAUUCCUCGUCACUCAGCAGGGCAUCUCUGAGAGAAAUGCC [C28A A67G]", "self-cleavage": 0.55}
{"orderedResidues": "UACGUAGGUGGUUUUCCCCUGAUAGUGCUAAGGGUGCCUGGAAGUUUGGACAGGGCAGAGCUCAACACAGCGUGGCAAAGUGGCUGUGGCUAGACUGCCUCUCUGGAUUCCUCGUCACUCAGCAGGGCAUCUCUGAGAGAAAUGCC [G35U U52A]", "self-cleavage": 0.51}
{"orderedResidues": "UACGUAGGUGGUUUUCCCCUGAUAGUGCUAAGGGGGCCUGGAAGUUUGGGCUGGGCAGAGCUCAACACAGCGUGGCAAAGUGGCUGUGGCUAGACUGCCUCUCUGGAUUCCUCGUCACUCAGCAGGGCAUCUCUGAGAGAAACGCC [A50G U143C]", "self-cleavage": 0.95}
